biological target: Discoidin domain-containing receptor 2 (Homo sapiens); note: in the data inactive means no Kd found up to 30 µM
Sequence (Q16832 whole entry, the tested form may be a part): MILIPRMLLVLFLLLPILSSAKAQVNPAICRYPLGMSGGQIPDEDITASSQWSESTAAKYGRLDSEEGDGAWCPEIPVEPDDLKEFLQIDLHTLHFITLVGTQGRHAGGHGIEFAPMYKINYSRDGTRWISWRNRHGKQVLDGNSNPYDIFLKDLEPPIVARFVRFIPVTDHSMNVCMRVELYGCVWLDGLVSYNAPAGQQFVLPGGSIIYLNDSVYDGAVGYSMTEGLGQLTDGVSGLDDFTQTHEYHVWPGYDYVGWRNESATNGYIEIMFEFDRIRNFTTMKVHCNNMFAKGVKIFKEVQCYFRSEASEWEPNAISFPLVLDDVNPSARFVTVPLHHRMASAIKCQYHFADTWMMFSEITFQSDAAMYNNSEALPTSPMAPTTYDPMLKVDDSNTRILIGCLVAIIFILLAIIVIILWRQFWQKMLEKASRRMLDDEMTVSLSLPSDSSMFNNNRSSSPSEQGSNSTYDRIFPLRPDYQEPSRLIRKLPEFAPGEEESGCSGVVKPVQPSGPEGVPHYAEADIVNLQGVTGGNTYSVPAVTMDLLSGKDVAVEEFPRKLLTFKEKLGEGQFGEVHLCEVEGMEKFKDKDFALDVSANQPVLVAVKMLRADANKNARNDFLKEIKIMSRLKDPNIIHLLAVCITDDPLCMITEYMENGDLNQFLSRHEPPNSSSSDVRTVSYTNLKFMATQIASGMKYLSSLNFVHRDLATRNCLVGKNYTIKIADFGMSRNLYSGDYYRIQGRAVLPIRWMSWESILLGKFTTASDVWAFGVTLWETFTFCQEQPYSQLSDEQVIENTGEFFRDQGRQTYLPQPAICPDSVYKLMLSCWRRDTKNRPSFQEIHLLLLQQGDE
The source made the active and inactive calls.
Would you mind answering with one of these outcomes? yes (active), no (inactive)

CNC(=O)c1ccc(-c2cnc3ncc(Cc4ccc5ncccc5c4)n3n2)cc1F [CAPMATINIB]    no
CC[C@H](Nc1ncnc2[nH]cnc12)c1nc2cccc(F)c2c(=O)n1-c1ccccc1 [IDELALISIB]    no
Cn1cc(-c2ccc3nnc(C(F)(F)c4ccc5ncccc5c4)n3n2)cn1 [JNJ-38877605]    no
CC(=O)Nc1cccc(-n2c(=O)n(C3CC3)c(=O)c3c(Nc4ccc(I)cc4F)n(C)c(=O)c(C)c32)c1 [TRAMETINIB]    no

[ask] Lab log entry: Cc1cc(-c2cc(O)ccc2Cl)cc2nnc(Nc3ccc(OCCN4CCCC4)cc3)nc12 — outcome as called in the assay?
[reply] yes

[ask] Test call, this compound: Cc1cc2c(F)c(Oc3ncnn4cc(OC[C@@H](C)OC(=O)[C@H](C)N)c(C)c34)ccc2[nH]1 [BRIVANIB ALANINATE]
[reply] no

[ask] Call for entry COc1cc2nccc(Oc3ccc(NC(=O)NC4CC4)c(Cl)c3)c2cc1C(N)=O [LENVATINIB] :
[reply] yes

[ask] Which outcome was assigned to Cc1ccc(NC(=O)c2ccc(CN3CC[C@H](N(C)C)C3)c(C(F)(F)F)c2)cc1Nc1nccc(-c2cncnc2)n1 [BAFETINIB] in this test?
[reply] yes

* * *

biological target: Serine/threonine-protein kinase 10 (Homo sapiens); note: in the data inactive means no Kd found up to 30 µM
Sequence (O94804 whole entry): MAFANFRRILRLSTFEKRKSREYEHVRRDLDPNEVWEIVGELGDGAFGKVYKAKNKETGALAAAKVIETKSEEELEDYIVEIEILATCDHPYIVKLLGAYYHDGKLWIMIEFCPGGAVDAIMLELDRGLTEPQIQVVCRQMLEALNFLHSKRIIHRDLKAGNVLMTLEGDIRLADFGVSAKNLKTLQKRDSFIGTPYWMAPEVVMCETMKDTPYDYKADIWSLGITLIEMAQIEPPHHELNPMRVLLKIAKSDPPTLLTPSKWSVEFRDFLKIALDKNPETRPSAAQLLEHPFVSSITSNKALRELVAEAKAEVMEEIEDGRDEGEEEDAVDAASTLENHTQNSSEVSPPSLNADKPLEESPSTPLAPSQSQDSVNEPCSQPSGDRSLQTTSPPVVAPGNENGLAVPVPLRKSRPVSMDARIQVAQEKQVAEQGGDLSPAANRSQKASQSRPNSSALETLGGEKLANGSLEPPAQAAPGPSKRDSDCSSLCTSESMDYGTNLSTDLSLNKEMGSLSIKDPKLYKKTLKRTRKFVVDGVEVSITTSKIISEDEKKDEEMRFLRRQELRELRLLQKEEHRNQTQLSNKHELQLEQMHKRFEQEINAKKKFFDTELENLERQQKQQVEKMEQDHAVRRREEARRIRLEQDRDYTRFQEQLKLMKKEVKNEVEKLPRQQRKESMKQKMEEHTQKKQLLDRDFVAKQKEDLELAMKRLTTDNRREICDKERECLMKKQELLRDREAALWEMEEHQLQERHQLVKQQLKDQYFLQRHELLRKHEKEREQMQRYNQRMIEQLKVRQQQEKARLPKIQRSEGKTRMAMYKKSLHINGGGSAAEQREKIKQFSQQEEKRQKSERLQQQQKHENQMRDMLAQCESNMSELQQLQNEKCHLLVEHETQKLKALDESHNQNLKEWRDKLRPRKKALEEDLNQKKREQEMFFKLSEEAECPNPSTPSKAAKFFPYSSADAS
Activity calls are given as the source filed them.
Result category, one only: true (1) = active, false (0) = inactive

Use the examples below as a reference point.
CCN1CCN(Cc2ccc(-c3cc4c(N[C@H](C)c5ccccc5)ncnc4[nH]3)cc2)CC1    true (1)
CN1CCC(CNc2ccc3ncc(-c4cccc(OC(F)(F)F)c4)n3n2)CC1    true (1)
Cc1ccc(-n2nc(C(C)(C)C)cc2NC(=O)NCc2cc(F)ccc2Oc2ccc3c(cnn3CCO)c2)cc1    false (0)
CCS(=O)(=O)N1CC(CC#N)(n2cc(-c3ncnc4[nH]ccc34)cn2)C1    false (0)
CNC(=O)c1cc(Oc2ccc(NC(=O)Nc3ccc(Cl)c(C(F)(F)F)c3)c(F)c2)ccn1    false (0)

[ask] What classification did CCc1cnn2c(NCc3ccc[n+]([O-])c3)cc(N3CCCC[C@H]3CCO)nc12 end up with in this test?
[reply] false (0)

[ask] Entry CNC(=O)c1ccc(C)c(-n2c(C)cc(OCc3ccc(F)cc3F)c(Br)c2=O)c1 : call = ?
[reply] false (0)

[ask] Could you please tell me the result logged for Cc1ccc(NC(=O)c2ccc(CN3CC[C@H](N(C)C)C3)c(C(F)(F)F)c2)cc1Nc1nccc(-c2cncnc2)n1 in this assay?
[reply] false (0)

[ask] Outcome logged for CN(C)C(=O)c1cc2cnc(Nc3ccc(N4CCNCC4)cn3)nc2n1C1CCCC1 in this assay:
[reply] false (0)

[ask] Hello, I am checking results. What call was entered for O=C1NC(=O)/C(=C/c2ccc3nccc(-c4ccncc4)c3c2)S1 ?
[reply] true (1)

[ask] For this molecule, state the assay outcome: N[C@@H]1CCCN(c2c(/C=C3\SC(=O)NC3=O)cccc2-c2ccccc2)C1
[reply] false (0)

[ask] Short answer needed: outcome of this test for COC(=O)N[C@@H](C)CNc1nccc(-c2cn(C(C)C)nc2-c2cc(Cl)cc(NS(C)(=O)=O)c2F)n1 ?
[reply] false (0)

[ask] // outcome(item) with item = CC(=O)Nc1cccc(-n2c(=O)n(C3CC3)c(=O)c3c(Nc4ccc(I)cc4F)n(C)c(=O)c(C)c32)c1
[reply] false (0)

[ask] Could you check what this test reported for CNC(=O)CN1CCC(Oc2cc3c(Nc4cccc(Cl)c4F)ncnc3cc2OC)CC1 ?
[reply] false (0)

[ask] Query: recorded result category for COc1cc2nccc(Oc3ccc(NC(=O)Nc4cc(C)on4)c(Cl)c3)c2cc1OC in this test
[reply] true (1)

[ask] Call for entry Cc1cc([C@@H](C)Nc2ccccc2C(=O)O)c2nc(N3CCOCC3)cc(=O)n2c1 :
[reply] false (0)

* * *

target: Inhibitor of nuclear factor kappa-B kinase subunit epsilon (Homo sapiens, UniProt Q14164); note: in the data inactive means no Kd found up to 30 µM
Sequence (Q14164 whole entry): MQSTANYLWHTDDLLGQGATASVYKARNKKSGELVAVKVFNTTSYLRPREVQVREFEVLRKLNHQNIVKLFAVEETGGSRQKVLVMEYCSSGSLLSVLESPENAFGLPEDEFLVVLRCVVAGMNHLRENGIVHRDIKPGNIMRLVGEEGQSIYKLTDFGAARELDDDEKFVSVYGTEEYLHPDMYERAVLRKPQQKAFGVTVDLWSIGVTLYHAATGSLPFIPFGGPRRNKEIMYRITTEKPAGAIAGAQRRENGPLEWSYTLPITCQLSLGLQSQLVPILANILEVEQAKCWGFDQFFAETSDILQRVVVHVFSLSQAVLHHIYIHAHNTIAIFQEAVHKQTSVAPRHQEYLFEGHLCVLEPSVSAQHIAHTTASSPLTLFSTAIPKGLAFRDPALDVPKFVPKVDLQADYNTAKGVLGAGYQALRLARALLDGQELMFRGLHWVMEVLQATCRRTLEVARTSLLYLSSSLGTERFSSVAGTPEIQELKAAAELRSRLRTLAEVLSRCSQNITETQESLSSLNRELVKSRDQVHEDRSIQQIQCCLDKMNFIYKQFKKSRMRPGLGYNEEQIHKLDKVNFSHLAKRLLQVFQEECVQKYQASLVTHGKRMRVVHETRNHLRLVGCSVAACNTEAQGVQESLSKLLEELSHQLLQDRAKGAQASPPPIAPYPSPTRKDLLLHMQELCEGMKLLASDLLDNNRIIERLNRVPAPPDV
Calls of active or inactive are those of the source.
Log the outcome using a class from yes (active), no (inactive)

Examples from the recorded data:
Cc1ccc(-n2nc(C(C)(C)C)cc2NC(=O)NCc2cc(F)ccc2Oc2ccc3c(cnn3CCO)c2)cc1 [PEXMETINIB]    no
CCN1CCN(Cc2ccc(-c3cc4c(N[C@H](C)c5ccccc5)ncnc4[nH]3)cc2)CC1 [AEE-788]    no
O=C(Nc1ccc(-c2ccnc(Nc3ccc(N4CCOCC4)cc3)n2)cc1)C1CCCN1 (stereo not drawn) [XL-019]    yes

[ask] Name the outcome recorded for CCS(=O)(=O)N1CC(CC#N)(n2cc(-c3ncnc4[nH]ccc34)cn2)C1 [BARICITINIB] in the assay.
[reply] no

[ask] State the result this test recorded for COc1cc2nccc(Oc3ccc(NC(=O)NC4CC4)c(Cl)c3)c2cc1C(N)=O [LENVATINIB] .
[reply] no

[ask] Hi, sorry to bother you, what did the test record for O=C1NC(=O)/C(=C/c2ccc3nccc(-c4ccncc4)c3c2)S1 [GSK-1059615] ?
[reply] no

[ask] Name the outcome recorded for Cc1ccc(S(=O)(=O)Nc2nc3ccccc3nc2Nc2ccc3nsnc3c2)cc1 in the assay.
[reply] no

[ask] Query: recorded result category for COc1cc(OC)c(/C=C/S(=O)(=O)Cc2ccc(OC)c(NCC(=O)O)c2)c(OC)c1 [RIGOSERTIB] in this test
[reply] no

* * *

Quick note: these are Kd numbers for system: Dual specificity mitogen-activated protein kinase kinase 5 (Homo sapiens); note: in the data inactive means no Kd found up to 30 µM
Sequence (Q13163 whole entry): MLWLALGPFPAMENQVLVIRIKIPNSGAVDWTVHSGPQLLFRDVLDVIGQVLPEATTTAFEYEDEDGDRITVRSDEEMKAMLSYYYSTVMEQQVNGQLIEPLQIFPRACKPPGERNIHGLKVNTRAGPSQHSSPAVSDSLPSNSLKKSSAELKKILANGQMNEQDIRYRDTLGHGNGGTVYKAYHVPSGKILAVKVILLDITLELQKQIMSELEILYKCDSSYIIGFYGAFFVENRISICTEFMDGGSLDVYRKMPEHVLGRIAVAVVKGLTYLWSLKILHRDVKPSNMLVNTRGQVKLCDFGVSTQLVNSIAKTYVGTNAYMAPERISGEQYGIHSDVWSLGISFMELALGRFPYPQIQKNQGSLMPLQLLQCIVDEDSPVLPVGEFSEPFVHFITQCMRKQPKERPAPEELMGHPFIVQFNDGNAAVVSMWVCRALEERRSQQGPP
Active and inactive are the calls of the source.

Examples with their reported Kd follow.
CN1CCC(CNc2ccc3ncc(-c4cccc(OC(F)(F)F)c4)n3n2)CC1 [SGI-1776]    > 30 µM (inactive)
CC(C)Nc1cc(-c2c[nH]c(C(=O)N[C@H](CO)c3cccc(Cl)c3)c2)c(Cl)cn1 [ULIXERTINIB]    > 30 µM (inactive)
Cc1cc(Nc2cc(N3CCN(C)CC3)nc(/C=C/c3ccccc3)n2)n[nH]1 [ENMD-2076]    > 30 µM (inactive)

The compound Cc1cc([C@@H](C)Nc2ccccc2C(=O)O)c2nc(N3CCOCC3)cc(=O)n2c1 [AZD-6482] , tested on Dual specificity mitogen-activated protein kinase kinase 5 (Homo sapiens), showed Kd of > 30 µM (inactive)

* * *

biological target: Tyrosine-protein kinase SYK (Homo sapiens); note: in the data inactive means no Kd found up to 30 µM
Calls of active or inactive are those of the source.
Valid outcomes are listed here; reply with one: active, inactive

Study these solved cases before continuing.
COc1cc(N2CCC(N3CCN(C)CC3)CC2)ccc1Nc1ncnc(Nc2ccccc2S(=O)(=O)C(C)C)n1    inactive
CNS(=O)(=O)Nc1nccc(Cc2c(C)c3ccc(Oc4ncccn4)cc3oc2=O)c1F    inactive

For the next question, use this molecule.
[ask] So what was the verdict on Cc1cc(-c2cc(O)ccc2Cl)cc2nnc(Nc3ccc(OCCN4CCCC4)cc3)nc12 in this test?
[reply] inactive

* * *

biological target: Mitogen-activated protein kinase kinase kinase 6 (Homo sapiens); note: in the data inactive means no Kd found up to 30 µM
Sequence (O95382 whole entry): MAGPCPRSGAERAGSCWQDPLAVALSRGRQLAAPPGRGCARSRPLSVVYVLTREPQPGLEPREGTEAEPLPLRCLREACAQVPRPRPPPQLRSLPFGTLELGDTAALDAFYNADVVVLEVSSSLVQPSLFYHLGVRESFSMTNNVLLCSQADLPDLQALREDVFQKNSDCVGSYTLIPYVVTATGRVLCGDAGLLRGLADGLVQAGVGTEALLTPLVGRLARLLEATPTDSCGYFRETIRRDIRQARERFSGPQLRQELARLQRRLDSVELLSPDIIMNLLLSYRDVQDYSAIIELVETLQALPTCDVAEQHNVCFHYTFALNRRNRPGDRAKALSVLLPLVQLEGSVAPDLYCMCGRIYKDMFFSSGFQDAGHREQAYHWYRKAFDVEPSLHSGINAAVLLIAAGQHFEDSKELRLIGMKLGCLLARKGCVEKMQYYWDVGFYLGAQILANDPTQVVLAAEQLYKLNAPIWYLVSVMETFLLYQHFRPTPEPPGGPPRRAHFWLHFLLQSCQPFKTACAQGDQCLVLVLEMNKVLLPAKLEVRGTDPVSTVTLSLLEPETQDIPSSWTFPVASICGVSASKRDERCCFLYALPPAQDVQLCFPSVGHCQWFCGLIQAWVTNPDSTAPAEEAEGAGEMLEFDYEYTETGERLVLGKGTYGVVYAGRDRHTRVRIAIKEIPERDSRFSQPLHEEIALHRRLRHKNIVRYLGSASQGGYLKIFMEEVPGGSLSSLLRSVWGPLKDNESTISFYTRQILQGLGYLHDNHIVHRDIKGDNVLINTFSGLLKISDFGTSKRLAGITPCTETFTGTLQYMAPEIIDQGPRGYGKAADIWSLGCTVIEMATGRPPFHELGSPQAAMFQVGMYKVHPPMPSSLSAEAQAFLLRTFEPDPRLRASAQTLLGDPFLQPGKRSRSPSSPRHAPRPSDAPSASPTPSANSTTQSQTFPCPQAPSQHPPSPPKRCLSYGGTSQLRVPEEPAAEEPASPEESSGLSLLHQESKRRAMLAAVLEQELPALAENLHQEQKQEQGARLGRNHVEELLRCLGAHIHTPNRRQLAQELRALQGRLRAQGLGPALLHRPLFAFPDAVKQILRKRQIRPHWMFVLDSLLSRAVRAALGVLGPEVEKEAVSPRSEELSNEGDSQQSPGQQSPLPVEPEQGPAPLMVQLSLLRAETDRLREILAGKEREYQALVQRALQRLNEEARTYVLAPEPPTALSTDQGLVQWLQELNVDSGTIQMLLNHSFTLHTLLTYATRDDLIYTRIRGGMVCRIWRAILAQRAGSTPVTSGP
Active and inactive are the calls of the source.
Write down one outcome, taken from class 1 (active), class 0 (inactive)

Recorded results for 3 molecules are shown here.
Cc1cc(Nc2cc(N3CCN(C)CC3)nc(/C=C/c3ccccc3)n2)n[nH]1 [ENMD-2076]    class 0
O=C(Nc1ccc(-c2ccnc(Nc3ccc(N4CCOCC4)cc3)n2)cc1)C1CCCN1 (configuration not stated) [XL-019]    class 0
COCCNCc1ccc(-c2cc3nccc(Oc4ccc(NC(=S)NC(=O)Cc5ccc(F)cc5)cc4F)c3s2)nc1 [GLESATINIB]    class 0

[ask] Dear colleague, could you share the recorded outcome for CN1CC[C@@H](c2c(O)cc(O)c3c(=O)cc(-c4ccccc4Cl)oc23)[C@@H]1CO when you have a moment?
[reply] class 0

[ask] Could you check what this test reported for COC(=O)[C@@]1(O)C[C@H]2O[C@]1(C)n1c3ccccc3c3c4c(c5c6ccccc6n2c5c31)C(=O)NC4 [K-252A] ?
[reply] class 1

[ask] Record lookup: outcome of this test for CCCS(=O)(=O)Nc1ccc(F)c(C(=O)c2c[nH]c3ncc(-c4ccc(Cl)cc4)cc23)c1F [VEMURAFENIB] ?
[reply] class 0

[ask] Assay result, entry CC[C@@H]1C(=O)N(C)c2cnc(Nc3ccc(C(=O)N[C@H]4CC[C@H](N5CCN(CC6CC6)CC5)CC4)cc3OC)nc2N1C(C)C [VOLASERTIB] — outcome?
[reply] class 0

* * *

target: Tyrosine-protein kinase FRK (Homo sapiens, UniProt P42685); note: in the data inactive means no Kd found up to 30 µM
Sequence (P42685 whole entry): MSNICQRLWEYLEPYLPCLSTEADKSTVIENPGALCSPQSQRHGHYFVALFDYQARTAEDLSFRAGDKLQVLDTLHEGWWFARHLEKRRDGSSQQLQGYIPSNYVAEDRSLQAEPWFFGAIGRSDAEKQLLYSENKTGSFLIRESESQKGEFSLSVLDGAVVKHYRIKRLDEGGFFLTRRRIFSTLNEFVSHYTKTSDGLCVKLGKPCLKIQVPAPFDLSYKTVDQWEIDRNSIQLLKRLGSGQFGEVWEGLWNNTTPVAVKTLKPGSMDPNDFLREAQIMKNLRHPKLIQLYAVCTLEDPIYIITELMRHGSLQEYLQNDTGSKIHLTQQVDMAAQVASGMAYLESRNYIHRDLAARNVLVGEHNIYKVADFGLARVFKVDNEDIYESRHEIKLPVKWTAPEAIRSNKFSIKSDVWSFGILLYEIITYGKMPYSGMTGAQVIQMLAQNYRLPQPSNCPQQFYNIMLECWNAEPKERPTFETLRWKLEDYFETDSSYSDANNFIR
The source made the active and inactive calls.
Valid outcomes are listed here; reply with one: 1 (active), -1 (inactive)

The following compounds have reported results that may help.
CNS(=O)(=O)Nc1nccc(Cc2c(C)c3ccc(Oc4ncccn4)cc3oc2=O)c1F    -1
O=c1sn(-c2cccc3ccccc23)c(=O)n1Cc1ccccc1    -1
CCc1cnn2c(NCc3ccc[n+]([O-])c3)cc(N3CCCC[C@H]3CCO)nc12    -1

[ask] Hi team, can someone confirm the assay call for COC(=O)[C@@]1(O)C[C@H]2O[C@]1(C)n1c3ccccc3c3c4c(c5c6ccccc6n2c5c31)C(=O)NC4 [K-252A] ?
[reply] -1

[ask] What classification did CCN1CCN(Cc2ccc(-c3cc4c(N[C@H](C)c5ccccc5)ncnc4[nH]3)cc2)CC1 end up with in this test?
[reply] -1

[ask] Per the records of this test, what outcome belongs to C1=C/COCc2cc(ccc2OCCN2CCCC2)Nc2nccc(n2)-c2cccc(c2)COC/1 ?
[reply] -1

[ask] Lab log entry: Cn1cc(-c2ccc(F)c(C(F)(F)F)c2)nc1C1CCN(c2ncnc3[nH]ncc23)CC1 — outcome as called in the assay?
[reply] -1

Value source: ChEMBL document CHEMBL3991601
